Biological target: ARAF YDYD (Homo sapiens, UniProt P10398, Y301D/Y302D)
Construct: purchased Reaction Biology Europe GmbH
Sequence (P10398 whole entry Y301D/Y302D): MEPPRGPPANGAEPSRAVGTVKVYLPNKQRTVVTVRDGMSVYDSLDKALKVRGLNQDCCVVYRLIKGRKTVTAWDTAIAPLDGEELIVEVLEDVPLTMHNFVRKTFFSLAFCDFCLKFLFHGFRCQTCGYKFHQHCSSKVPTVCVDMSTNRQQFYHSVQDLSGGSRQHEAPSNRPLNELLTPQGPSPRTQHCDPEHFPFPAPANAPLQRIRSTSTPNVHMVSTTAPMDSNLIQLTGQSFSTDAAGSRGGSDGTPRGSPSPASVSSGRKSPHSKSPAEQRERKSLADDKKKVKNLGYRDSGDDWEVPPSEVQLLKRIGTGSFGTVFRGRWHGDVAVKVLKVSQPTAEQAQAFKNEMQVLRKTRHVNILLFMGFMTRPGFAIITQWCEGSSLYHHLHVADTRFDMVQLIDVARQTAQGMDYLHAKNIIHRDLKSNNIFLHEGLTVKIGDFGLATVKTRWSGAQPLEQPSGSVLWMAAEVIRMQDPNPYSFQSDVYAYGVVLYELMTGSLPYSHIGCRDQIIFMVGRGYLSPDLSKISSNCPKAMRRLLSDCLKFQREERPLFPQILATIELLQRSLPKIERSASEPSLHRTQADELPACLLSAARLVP
Experiment: PanQinase kinase panel: ARAF YDYD
Assay type: biochemical
Details: read-out: INHIBITORY EFFECT @ 1 uM: ARAF YDYD
Procedure: Screening procedures were performed in accordance with the company's on-line protocol [accessed on-line Mar. For each kinase, the median value of the cpm of three wells was defined as “low control” (n=3). This value reflects unspecific binding of radioactivity to the plate in the absence of a protein kinase but in the presence of the substrate. […]
ASSAY_METRIC: inhibition at 1 µM

MOLECULE: Cc1cccnc1[C@H]1CCC[C@@H](c2ncccc2C)N1CCN1CCN(C(=O)c2ccc(-c3cc4c(-c5cccc(NC(=O)c6ccccc6)c5C)ncnc4[nH]3)cc2)CC1 [Compound I-10]
ASSAY_METRIC: inhibition at 1 µM
RESULT: < 50%

MOLECULE: COc1ccc(F)cc1C(=O)NCc1ccc(-c2nn([C@@H](C)C(F)(F)F)c(N)c2C(N)=O)cc1 [LOXO-305, pirtobrutinib]
ASSAY_METRIC: inhibition at 1 µM
RESULT: < 50%

MOLECULE: O=C(c1ccc(Oc2ccccc2)cc1Cl)c1c[nH]c2ncnc(N[C@@H]3CC[C@@H](CO)OC3)c12 [ARQ-531]
ASSAY_METRIC: inhibition at 1 µM
RESULT: 70 to 89%

Prompt: So what does the record say about inhibition at 1 µM for C=CC(=O)N1CCC([C@@H]2CCNc3c(C(N)=O)c(-c4ccc(Oc5ccccc5)cc4)nn32)CC1 [Zanubrutinib] ?
Response: < 50%

This collection of values is drawn from patent US20250326753A1.
